Form field: MIC SC (one value per entry).
# System: Salmonella choleraesuis
# protocol: Bacterial panel testing, MIC by broth microdilution
# Assay type: cell-based
# run parameters: 20-24 hours growth

# compound, MIC SC
records = [
    ("CC(=O)OC1C2OC(Cn3cc(Cc4ccccc4)nn3)C(OC3OC(Cn4cc(Cc5ccccc5)nn4)C(OC4OC(Cn5cc(Cc6ccccc6)nn5)C(OC5OC(Cn6cc(Cc7ccccc7)nn6)C(OC6OC(Cn7cc(Cc8ccccc8)nn7)C(OC7OC(Cn8cc(Cc9ccccc9)nn8)C(OC8OC(Cn9cc(Cc%10ccccc%10)nn9)C(O2)C(OC(C)=O)C8OC(C)=O)C(OC(C)=O)C7OC(C)=O)C(OC(C)=O)C6OC(C)=O)C(OC(C)=O)C5OC(C)=O)C(OC(C)=O)C4OC(C)=O)C(OC(C)=O)C3OC(C)=O)C1OC(C)=O (centres unmarked)", ">200 µg/mL"),
    ("Oc1ccc(NC[C@H]2O[C@@H]3O[C@H]4[C@H](O)[C@@H](O)[C@@H](O[C@H]5[C@H](O)[C@@H](O)[C@@H](O[C@H]6[C@H](O)[C@@H](O)[C@@H](O[C@H]7[C@H](O)[C@@H](O)[C@@H](O[C@H]8[C@H](O)[C@@H](O)[C@@H](O[C@H]9[C@H](O)[C@@H](O)[C@@H](O[C@H]2[C@H](O)[C@H]3O)O[C@@H]9CNc2ccc(O)cc2)O[C@@H]8CNc2ccc(O)cc2)O[C@@H]7CNc2ccc(O)cc2)O[C@@H]6CNc2ccc(O)cc2)O[C@@H]5CNc2ccc(O)cc2)O[C@@H]4CNc2ccc(O)cc2)cc1", ">200 µg/mL"),
]
